Where these numbers come from: patent US20210388105A1

Target: T1, human CD39 (full length, on cells) (human, UniProt P49961 1-510)
T1 construct: Recombinant on CHOK1-hCD39 cells or natural on SK-MEL-28, SK-MEL-5 and MOLP-8 cells; the cell line is named under assay; also called hCD39; ENTPD1
T1 sequence: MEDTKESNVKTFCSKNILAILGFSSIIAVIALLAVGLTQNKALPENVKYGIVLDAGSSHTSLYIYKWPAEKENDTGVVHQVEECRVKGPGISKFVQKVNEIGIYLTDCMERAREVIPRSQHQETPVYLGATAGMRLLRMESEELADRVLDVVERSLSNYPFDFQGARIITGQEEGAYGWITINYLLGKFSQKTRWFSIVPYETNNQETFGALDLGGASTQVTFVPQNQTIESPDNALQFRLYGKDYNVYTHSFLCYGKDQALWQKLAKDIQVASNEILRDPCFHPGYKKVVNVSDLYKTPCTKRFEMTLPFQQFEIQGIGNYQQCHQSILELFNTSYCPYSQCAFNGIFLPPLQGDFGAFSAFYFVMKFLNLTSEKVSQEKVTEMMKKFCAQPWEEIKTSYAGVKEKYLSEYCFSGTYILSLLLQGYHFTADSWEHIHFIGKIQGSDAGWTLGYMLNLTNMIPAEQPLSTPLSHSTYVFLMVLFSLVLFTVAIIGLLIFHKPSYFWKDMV
Experiment: FACS, MOLP-8 cells
property-measured: pEC50
Here pEC50 is given on a logarithmic scale as minus log10 of the concentration in mol/L.

query: // returns reported pEC50 for input hu23.203 (antibody, V domains shown, humanized c23 by yeast display) VH: QVQLVQSGAEVKKPGASVKVSCKASGYTLKDTFLHWVRQAPGQRLEWMGRIDPANGNIKYDPKFQGRVTLTADTSSNTAYMELSSLRSEDTAVYYCANSPYYYGSGYRIFDVWGQGTLVTVSS VL: EIVLTQSPATLTLSPGERATLSCSAFSSVNYMHWYQQKPGQAPRLLIYTTSNLASGIPARFSGSGSGTDYTLTISSLEPEDFAVYYCQQRSTYPFTFGQGTKLEIK
result: 9.37
